// Ki collected for hCA I (Homo sapiens, UniProt P00915)
reported endpoint: Ki (nM)

>  <molecule>
O=C(/C=C/c1c(-c2ccccc2)nc2sc(SCc3ccc(F)cc3)nn12)c1ccc(Cl)cc1 [8d]

>  <reported endpoint>
Ki

>  <meas value>
45.1

$$$$
>  <molecule>
O=C(/C=C/c1c(-c2ccccc2)nc2sc(SCc3ccccc3)nn12)c1ccc(Cl)cc1 [8b]

>  <reported endpoint>
Ki

>  <meas value>
78

$$$$
>  <molecule>
COc1ccc(C(=O)/C=C/c2c(-c3ccccc3)nc3sc(SCc4ccccc4)nn23)cc1 [8a]

>  <reported endpoint>
Ki

>  <meas value>
81.2

$$$$
